Test system: COG-LL-317 acute lymphoblastic leukemia cell line
Experiment: DIMSCAN cytotoxicity, fenretinide + L-threo-sphinganines 3:1 (Example B20)
Format: cell-based, human
Conditions: 4-HPR 9 μM + L-threo-sphinganine 3 μM
Measured endpoint: Fa

[
  {
    "Compound": "CCCCCCCCCCCCCCC[C@H](O)[C@@H](N)CO [C18, (2S,3S)-2-amino-1,3-octadecanediol, reference compound]",
    "Tested target": "COG-LL-317 acute lymphoblastic leukemia cell line",
    "Measured endpoint": "Fa",
    "Readout number": 0.9996
  },
  {
    "Compound": "CCCCCCCCCCCCCCCC[C@H](O)[C@@H](N)CO [C19, (2S,3S)-2-amino-1,3-nonadecanediol]",
    "Tested target": "COG-LL-317 acute lymphoblastic leukemia cell line",
    "Measured endpoint": "Fa",
    "Readout number": 1.0000
  },
  {
    "Compound": "CCCCCCCCCCCCCCCCC[C@H](O)[C@@H](N)CO [C20, (2S,3S)-2-amino-1,3-icosanediol]",
    "Tested target": "COG-LL-317 acute lymphoblastic leukemia cell line",
    "Measured endpoint": "Fa",
    "Readout number": 1
  },
  {
    "Compound": "CCCCCCCCCCCCCC[C@H](O)[C@@H](N)CO [C17, (2S,3S)-2-amino-1,3-heptadecanediol]",
    "Tested target": "COG-LL-317 acute lymphoblastic leukemia cell line",
    "Measured endpoint": "Fa",
    "Readout number": 0.9999
  }
]
